Taken from patent US20220169660A1.

The reader will find reported EC50 values listed item by item below.
biological target: TGFBR2 (Homo sapiens, UniProt P37173); experiment: TGFBR2 RBC enzyme assay (Reaction Biology Corp.)
Sequence (P37173 23-567): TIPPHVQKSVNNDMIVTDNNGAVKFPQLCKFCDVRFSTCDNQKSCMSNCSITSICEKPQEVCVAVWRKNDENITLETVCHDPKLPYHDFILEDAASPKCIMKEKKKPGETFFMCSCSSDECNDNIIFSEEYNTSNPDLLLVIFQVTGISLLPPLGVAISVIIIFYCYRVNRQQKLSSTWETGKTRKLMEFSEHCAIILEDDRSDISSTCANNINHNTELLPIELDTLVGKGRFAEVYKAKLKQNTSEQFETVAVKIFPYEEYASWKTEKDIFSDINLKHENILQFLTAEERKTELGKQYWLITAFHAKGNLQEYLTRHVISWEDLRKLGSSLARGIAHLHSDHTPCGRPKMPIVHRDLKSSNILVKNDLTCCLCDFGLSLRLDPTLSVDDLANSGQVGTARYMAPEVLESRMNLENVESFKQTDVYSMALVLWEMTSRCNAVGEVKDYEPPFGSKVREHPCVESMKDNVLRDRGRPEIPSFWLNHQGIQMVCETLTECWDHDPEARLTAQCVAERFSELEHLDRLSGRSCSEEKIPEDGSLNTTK
measuredProperty: EC50

molecule	result
CN1CCOc2cc(OCCCN)ccc2-c2cnc(N)c(n2)C(=O)Nc2cnccc21	1 to 100 nM
Nc1ncc2nc1C(=O)Nc1cnccc1N1CCC(CC1)Oc1cccc-2c1	> 1000 nM
Nc1ncc2nc1C(=O)Nc1cnccc1N1CCC(COc3cccc-2c3)C1 (stereo not drawn)	1 to 100 nM
Nc1ncc2nc1C(=O)Nc1cnccc1NCCCOc1cccc-2c1	1 to 100 nM
CN1CCCOc2cccc(c2)-c2cnc(N)c(n2)C(=O)Nc2cnccc21	1 to 100 nM
Nc1ncc2nc1C(=O)Nc1cnccc1OCCOc1cccc-2c1	1 to 100 nM
Nc1ncc2nc1C(=O)Nc1cnccc1N1CCOC(COc3cccc-2c3)C1 (stereo not drawn)	100 to 1000 nM
Nc1ncc2nc1C(=O)Nc1cnccc1OCCCOc1cccc-2c1	> 1000 nM
CCCN1CCCOc2cccc(c2)-c2cnc(N)c(n2)C(=O)Nc2cnccc21	1 to 100 nM

###

molecular target: TGFBR2 (Homo sapiens, UniProt P37173); assay: TGFBR2 RBC enzyme assay (Reaction Biology Corp.)

compound	studySystem	EC50
Cc1cc2cc(c1)-c1cnc(N)c(n1)C(=O)Nc1cnccc1N(C)CCCO2 [Compound 10]	TGFBR2 (Homo sapiens, UniProt P37173)	1 to 100 nM
Nc1ncc2nc1C(=O)Nc1cnccc1NCCOCCOCCOc1cccc-2c1 [Compound 1]	TGFBR2 (Homo sapiens, UniProt P37173)	> 1000 nM
CN1CCCOc2cc(ccc2CCCCN)-c2cnc(N)c(n2)C(=O)Nc2cnccc21 [Compound 62]	TGFBR2 (Homo sapiens, UniProt P37173)	1 to 100 nM
CC1CCOc2cccc(c2)-c2cnc(N)c(n2)C(=O)Nc2cnccc2N1C (centres unmarked) [Compound 18]	TGFBR2 (Homo sapiens, UniProt P37173)	1 to 100 nM
CN1CCC(=O)N(C)c2cccc(c2)-c2cnc(N)c(n2)C(=O)Nc2cnccc21 [Compound 27]	TGFBR2 (Homo sapiens, UniProt P37173)	1 to 100 nM

###

target: TGFBR2 (Homo sapiens); construct: purchased Reaction Biology Corp; assay: TGFBR2 RBC enzyme assay (Reaction Biology Corp.); type: biochemical
pEC50: −log10 of the molar value.
measuredProperty: pEC50

compound	result
Nc1ncc2nc1C(=O)Nc1cnccc1NCCOCCOCCOCCOc1cccc-2c1 [Compound 7]	< 6.00
CC(C)(C)OC(=O)N1C[C@@H]2C[C@H]1COc1cccc(c1)-c1cnc(N)c(n1)C(=O)Nc1cnccc1O2 (racemic) [Compound 37]	6.00 to 7.00
Nc1ncc2nc1C(=O)Nc1cnccc1OC[C@@H]1C[C@H](CN1)Oc1cccc-2c1 (racemic) [Compound 40]	< 6.00
CN1CCNC(=O)c2cc(ccc2OCCCN)-c2cnc(N)c(n2)C(=O)Nc2cnccc21 [Compound 55]	6.00 to 7.00
CN1CCCCCOc2cccc(c2)-c2cnc(N)c(n2)C(=O)Nc2cnccc21 [Compound 9]	7.00 to 9.00
CN1CCCCc2cc(ccc2OCCCN)-c2cnc(N)c(n2)C(=O)Nc2cnccc21 [Compound 63]	7.00 to 9.00
CN1CCOCc2cccc(c2)-c2cnc(N)c(n2)C(=O)Nc2cnccc21 [Compound 15]	7.00 to 9.00
Cc1ccc2cc1OCCCN(C)c1ccncc1NC(=O)c1nc-2cnc1N [Compound 12]	7.00 to 9.00
CN1C[C@H](CNCc2ccccc2)Oc2ccccc2-c2cnc(N)c(n2)C(=O)Nc2cnccc21 [Compound 59]	< 6.00
Nc1ncc2nc1C(=O)Nc1cnccc1NCCCCCOc1cccc-2c1 [Compound 3]	< 6.00
CN1CCCCOc2cccc(c2)-c2cnc(N)c(n2)C(=O)Nc2cnccc21 [Compound 5]	7.00 to 9.00
CN1C[C@@H](CNCc2ccccc2)Oc2ccccc2-c2cnc(N)c(n2)C(=O)Nc2cnccc21 [Compound 57]	< 6.00
CC1CCN(C)c2ccncc2NC(=O)c2nc(cnc2N)-c2cccc(c2)O1 (stereo not shown) [Compound 19]	7.00 to 9.00
